Procedure summary: qHTS assay to identify small molecule agonists of the estrogen receptor alpha (ER-alpha) signaling pathway in the presence of an antagonist - cell viability counter screen (AID 1259386);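 note: cells exposed to compounds for 22 h at 37 °C before the viability read; nearly all actives have a fitted effect of over 30% in size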
Conditions used: VM7Luc4E2 viability, CellTiter-Fluor fluorescence, 22 h; series mostly up to 92.4 µM
Inconclusive results are not listed. Activity calls are given as the source filed them. Calls come from the whole dose curve; as a rule, active = well fitted cell-killing curve with a large enough effect in the repeat runs; inconclusive = weak or mixed curves, or effect the other way; inactive = no such curve, though single readings can be large or run the other way.
Respond using exactly one of the listed classes: active, inactive

IN: Hey, what did the test say about `O[C@@H](CNC[C@H](O)[C@H]1CCc2cc(F)ccc2O1)[C@@H]1CCc2cc(F)ccc2O1` ?
OUT: inactive

IN: Recorded test outcome, item CO[C@@H]1[C@@H](OC)[C@H](C)[C@@](O)(CC(=O)O)O[C@H]1[C@H](C)[C@H]1O[C@@]2(CC[C@@](C)([C@H]3CC[C@@](C)([C@@H]4O[C@@H]([C@H]5O[C@](C)(O)[C@H](C)C[C@@H]5C)C[C@@H]4OC4C[C@H](OC)[C@@H](OC)[C@H](C)O4)O3)O2)C[C@H](O)[C@H]1C (stereo partly drawn)
OUT: active

IN: Outcome logged for CC1CCC(C(C)CS)CC1S (stereo not drawn) in this assay:
OUT: inactive

IN: What was the test verdict on `CC(=O)C(C)=O` ?
OUT: inactive

IN: Given `O=C1NC(=O)c2cccc3cccc1c23` , state the outcome it received in this test.
OUT: inactive

IN: Outcome logged for CC(C)(C)C(O)/C=C/c1ccc2c(c1)OCO2 (stereo not drawn) in this assay:
OUT: inactive

IN: For this molecule, state the assay outcome: CNS(=O)(=O)c1cc(C(=O)N2CCC(CCN3C4CCC3CC(n3c(C)nc5ccccc53)C4)(c3cccc(F)c3)CC2)c(Cl)cc1F (stereo not drawn)
OUT: inactive

IN: Record lookup: outcome of this test for `CCCc1nc2c(C)cc(-c3nc4ccccc4n3C)cc2n1Cc1ccc(-c2ccccc2C(=O)O)cc1` ?
OUT: inactive

* * *

Procedure summary: Caspase-3/7 induction in CHO-K1 cells by small molecules, qHTS assay (AID 1346980); note: nearly all actives have a fitted effect of over 15% in size
Conditions used: CHO-K1 caspase-3/7 induction, Caspase-Glo luminescence, 17 h; series mostly up to 92.4 µM
Activity calls are given as the source filed them. Calls follow the shape of the dose curve; as a rule, active = well fitted activation curve with a large enough effect in the repeat runs; inconclusive = weak or mixed curves; inactive = flat fitted curve, though single readings scatter.
Parameter: outcome

[
  {
    "Entry smiles": "O=C1OC[C@H](Cc2cccc(O)c2)[C@H]1Cc1cccc(O)c1",
    "Endpoint result": "inactive"
  },
  {
    "Entry smiles": "COC(OC)OC",
    "Endpoint result": "inactive"
  },
  {
    "Entry smiles": "CCCC(=O)OC(=O)CCC",
    "Endpoint result": "inactive"
  }
]

* * *

Procedure summary: qHTS assay to identify small molecule agonists of the retinoic acid receptor (RAR) signaling pathway (AID 1159553)
Conditions used: C3RL4 RARE luciferase reporter, agonist, 6 h; series mostly up to 73.3 µM
Results filed as inconclusive are left out. Active and inactive are the calls of the source. Calls follow the shape of the dose curve; as a rule, active = well fitted activation curve with a large enough effect in the repeat runs; inconclusive = weak or mixed curves, or effect the other way; inactive = no such curve, though single readings can be large or run the other way.

[
  {
    "Molecule": "O=C(O)/C=C/c1ccc(O)c(O)c1",
    "outcome": "inactive"
  },
  {
    "Molecule": "CC(C)OC(=O)c1ccccc1C(=O)OC(C)C",
    "outcome": "inactive"
  },
  {
    "Molecule": "CC(C(=O)O)c1ccc(C(=O)c2cccs2)cc1 (stereo not drawn)",
    "outcome": "inactive"
  }
]

* * *

Procedure summary: qHTS assay for small molecule agonists of the p53 signaling pathway - cell viability (AID 651633); note: nearly all actives have a fitted effect of over 30% in size
Conditions used: p53RE-bla HCT-116 viability, ATP luminescence, 16 h; series mostly up to 83.3 µM
Inconclusive results are not listed. The source made the active and inactive calls. Calls follow the shape of the full dose curve.
Choose the fitting class; nothing outside Y for active, N for inactive is accepted.

IN: Which outcome was assigned to `O=C1CC[C@@H](C(=O)O)N1` in this test?
OUT: N

IN: Please share the test call associated with `Cc1ccc(S(=O)(=O)NC(=O)NC2CCCCC2)cc1` .
OUT: N

IN: Per the assay record, what outcome was assigned to COC(=O)CC(C(C)=O)C(=O)OC (stereo not drawn) ?
OUT: N

IN: GET /call?item= `CCc1ccc(C)cc1` returns the recorded outcome of this test.
OUT: N

IN: Identify the outcome logged in this assay for the compound shown: `Cc1ccc(N(CCO)CCO)cc1`
OUT: N

IN: Outcome? CCCCCCC(CO)CCCC (stereo not drawn)
OUT: N

IN: So what was the verdict on `COc1ccc(/C=C/C(=O)c2ccc(OC)cc2OC)cc1` in this test?
OUT: N

IN: // param item: `O=S(=O)(Cl)c1c(Cl)cccc1Cl` ; yields the recorded call
OUT: N

IN: # lookup: test call for `CC(C)c1ccc(C(=O)N=C(N)N)cc1S(C)(=O)=O`
OUT: N

IN: Can you look up the reported call for `CC(C)COC(=O)c1ccc(O)cc1` for me?
OUT: N

IN: What outcome does the record of this test show for `O=C(O)CCS` ?
OUT: N

IN: What call does the record list for `CCCCCCCCCCCCCOS(=O)(=O)O` ?
OUT: Y

IN: What was the test verdict on `Nc1ccn([C@H]2CS[C@@H](CO)O2)c(=O)n1` ?
OUT: N

IN: Each compound tested received a call. Report the one for `COC(=O)c1sccc1S(N)(=O)=O` .
OUT: N

IN: What did this assay record as the result for `CCCCOC(=O)CCCCC(=O)OCCCC` ?
OUT: N

IN: # lookup: test call for `C=C(C)c1ccccc1`
OUT: N

IN: Call for entry CC1CCC(C(C)CS)CC1S (stereo not drawn) :
OUT: Y

IN: For this compound, state the assay outcome: CCCCCCCCCCCCCCCCCC(=O)OCC(CC)CCCC (stereo not drawn)
OUT: N
